test system: BGC-823; assay: Cytotoxicity against human BGC823 cells by MTT assay; assay type: functional, cell-based
// values below are reported IC50
ENDPOINT: IC50

RECORD SMILES | ENDPOINT | RECORDED RESULT
CCn1c2ccccc2c2cc[n+](Cc3ccccc3)cc21 | IC50 | > 100 µM
c1ccc(CCCn2c3ccccc3c3cc[n+](Cc4ccccc4)c(-c4ccccc4)c32)cc1 | IC50 | < 2 µM
C=CCn1c2ccccc2c2cc[n+](Cc3ccccc3)cc21 | IC50 | > 100 µM

====

system: MCF7; test: Cytotoxicity against human MCF7 cells by MTT assay; assay type: functional, cell-based
Rule: measured IC50 below 20 µM gets 1 (yes); anything equal to or greater than 20 µM gets 0 (no).

RECORD SMILES | CLASS NAME
CCCCCCCCCC[n+]1ccc2c3ccccc3n(CCCc3ccccc3)c2c1 | 1 (yes)
c1ccc(CCCn2c3ccccc3c3cc[n+](CCCc4ccccc4)cc32)cc1 | 1 (yes)
c1ccc(CCCn2c3ccccc3c3cc[n+](CCc4ccccc4)cc32)cc1 | 1 (yes)
CCCCCCCCn1c2ccccc2c2cc[n+](Cc3ccccc3)cc21 | 1 (yes)
c1ccc(Cn2c3ccccc3c3cc[n+](Cc4ccccc4)cc32)cc1 | 1 (yes)
O=[N+]([O-])c1ccc(C[n+]2ccc3c4ccccc4n(CCCc4ccccc4)c3c2)cc1 | 0 (no)
Fc1ccc(Cn2c3ccccc3c3cc[n+](Cc4ccccc4)cc32)cc1 | 1 (yes)
CC(C)n1c2ccccc2c2cc[n+](Cc3ccccc3)cc21 | 0 (no)
COc1ccc(-c2c3c(cc[n+]2Cc2ccccc2)c2ccccc2n3CCCc2ccccc2)cc1.[Br-] | 1 (yes)
CCn1c2ccccc2c2cc[n+](Cc3ccccc3)cc21 | 0 (no)
c1ccc(CCCn2c3ccccc3c3cc[n+](Cc4ccccc4)c(-c4ccsc4)c32)cc1 | 0 (no)
c1ccc(CCCn2c3ccccc3c3cc[n+](Cc4ccccc4)c(-c4ccccc4)c32)cc1 | 1 (yes)

====

test system: SK-OV-3; experiment: Cytotoxicity against human SKOV3 cells by MTT assay; type: functional, cell-based
// values below are reported IC50
ENDPOINT: IC50

RECORD SMILES | ENDPOINT | RECORDED RESULT
CC[n+]1ccc2c3ccccc3n(CCCc3ccccc3)c2c1 | IC50 | > 100 µM
CCCCCC[n+]1ccc2c3ccccc3n(CCCc3ccccc3)c2c1 | IC50 | < 2 µM
c1ccc(CCCn2c3ccccc3c3cc[n+](Cc4ccccc4)c(-c4ccccc4)c32)cc1 | IC50 | < 2 µM
C[n+]1ccc2c3ccccc3n(CCCc3ccccc3)c2c1 | IC50 | > 100 µM
